Source listed as patent US9315484B2.

target: E487K variant of human ALDH2 (Homo sapiens, UniProt P05091, E504K); construct: made in house; host or cells: E. coli; test: Enzymatic activity of histidine-tagged E487K ALDH2 variant (NAD+ to NADH, acetaldehyde substrate); type: biochemical; conditions: over control (without activator compound) activity; n=3
Sequence (P05091 18-517 E504K): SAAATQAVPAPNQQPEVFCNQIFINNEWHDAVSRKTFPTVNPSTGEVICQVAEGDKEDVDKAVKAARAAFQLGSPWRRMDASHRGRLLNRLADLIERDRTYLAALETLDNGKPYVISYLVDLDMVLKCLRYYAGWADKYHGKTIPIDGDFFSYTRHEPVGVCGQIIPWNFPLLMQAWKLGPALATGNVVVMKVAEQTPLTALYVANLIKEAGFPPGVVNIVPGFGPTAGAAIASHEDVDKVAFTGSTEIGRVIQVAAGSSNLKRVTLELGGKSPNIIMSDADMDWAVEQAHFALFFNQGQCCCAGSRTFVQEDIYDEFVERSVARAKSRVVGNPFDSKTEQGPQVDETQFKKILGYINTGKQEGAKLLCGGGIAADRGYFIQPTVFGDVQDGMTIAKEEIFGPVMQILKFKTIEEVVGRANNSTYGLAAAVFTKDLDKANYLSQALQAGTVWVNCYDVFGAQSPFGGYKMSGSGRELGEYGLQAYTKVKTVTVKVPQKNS
List of increase of enzymatic activity of the E487K ALDH2 variant over control values.

1) O=C(NCc1ccc2c(c1)OCO2)c1ccccc1I [Compound 4]    ~700%

Please turn your attention to the following entry.
So, O=C(NCc1ccc2c(c1)OCO2)c1ccccc1Br [Compound 3] ? Its increase of enzymatic activity of the E487K ALDH2 variant over control was ~600%

###

Entries with reported pIC50 on "wild-type" ALDH2 enzyme (Homo sapiens, UniProt P05091)
Sequence (P05091 18-517): as the sequence (P05091 18-517 E504K) above, with K487E counted along it
To interpret pIC50, take it as minus log10 of a concentration measured in moles per litre.

For orientation, consider the following solved cases.
1. CCc1ccc(C(=O)CCN(C)C)cc1 [#046072]    5.94
2. O=C(Nc1nc2c(Cl)c(Cl)ccc2s1)c1cccnc1 [#032208]    5.79

Please turn your attention to the following entry.
Bench note, "wild-type" ALDH2 enzyme (Homo sapiens, UniProt P05091): COc1ccc(C(=O)CCN(C)C)cc1F [#062923] , pIC50 reads 6.20
